All values here come from paper PMC7562955.

Molecular target: TLR7 (Homo sapiens, UniProt Q9NYK1)
Sequence (Q9NYK1 27-1049): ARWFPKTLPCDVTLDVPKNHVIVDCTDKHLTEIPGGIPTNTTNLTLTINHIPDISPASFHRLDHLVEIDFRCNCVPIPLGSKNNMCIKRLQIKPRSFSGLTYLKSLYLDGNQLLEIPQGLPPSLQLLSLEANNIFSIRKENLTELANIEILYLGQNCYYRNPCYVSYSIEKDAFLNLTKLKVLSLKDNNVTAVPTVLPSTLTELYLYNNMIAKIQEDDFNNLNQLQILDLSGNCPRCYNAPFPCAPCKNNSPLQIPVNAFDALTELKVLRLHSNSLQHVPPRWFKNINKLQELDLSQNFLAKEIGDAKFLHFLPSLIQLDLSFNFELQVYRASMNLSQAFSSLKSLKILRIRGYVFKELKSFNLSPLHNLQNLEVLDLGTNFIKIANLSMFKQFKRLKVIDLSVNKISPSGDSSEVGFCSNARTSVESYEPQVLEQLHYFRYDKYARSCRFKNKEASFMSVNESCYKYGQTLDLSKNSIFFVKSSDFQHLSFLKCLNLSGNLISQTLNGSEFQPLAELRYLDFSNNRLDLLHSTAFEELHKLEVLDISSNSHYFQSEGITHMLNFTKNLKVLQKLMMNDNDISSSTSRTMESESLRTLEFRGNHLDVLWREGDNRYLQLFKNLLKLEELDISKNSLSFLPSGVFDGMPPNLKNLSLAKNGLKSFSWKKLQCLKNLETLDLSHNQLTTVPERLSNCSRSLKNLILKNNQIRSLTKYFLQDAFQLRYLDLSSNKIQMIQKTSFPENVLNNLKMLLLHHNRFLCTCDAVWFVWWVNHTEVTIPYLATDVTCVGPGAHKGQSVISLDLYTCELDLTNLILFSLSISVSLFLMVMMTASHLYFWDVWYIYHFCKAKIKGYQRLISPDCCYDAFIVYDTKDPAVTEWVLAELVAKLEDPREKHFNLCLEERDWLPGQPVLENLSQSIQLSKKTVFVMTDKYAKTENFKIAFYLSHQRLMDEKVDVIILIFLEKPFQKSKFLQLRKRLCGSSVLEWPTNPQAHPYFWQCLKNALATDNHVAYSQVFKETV
Assay: Human TLR7 reporter gene agonistic activity assay
Type: cell-based
Set-up: host or cells: HEK293 (TLR7/NF-κB/SEAPorter)
Conditions: compound 30 nM (as headed)
Metric: activation of human TLR7, reporter signal
# output: bare number, no unit

// below: answered compounds
CCCCOc1nc(N)c2nc(-c3cccnc3)n(Cc3ccccc3)c2n1
-0.0846
CCOCc1nc2c(N)nc3ccccc3c2n1CC(C)(C)O [R848, reference compound]
3.234
CCOc1nc(N)c2nc(-c3cncc(F)c3)n(Cc3ccc(CN4C[C@@H]5C[C@H]4CN5C)cc3)c2n1
-0.1098

Reported activation of human TLR7, reporter signal ( `CCOc1nc(C)c2nc(-c3cncc(F)c3)n(Cc3ccc(CN4C[C@@H]5C[C@H]4CN5C)cc3)c2n1` ) = -0.0961
